Record form. Attribute: pIC50. Fill in for each entry.
Tested on: human gastric cancer cells (SGC-7901)
Protocol details: tumor cell proliferation inhibition test, MTT method, SGC-7901
Assay type: cell-based
Assay setup: SGC-7901 cells, 48 hours treatment, read-out: Half Inhibitory Concentration IC50 SGC-7901
For clarity, pIC50 is expressed as the negative log10 of concentration in mol/L.

**Q:** Any idea what its pIC50 is? The compound is CCN1C(=O)/C(=N\N=C\c2c(O)c(O)c(C(C)C)c3cc(C)c(-c4c(C)cc5c(C(C)C)c(O)c(O)c(/C=N/N=C6/C(=O)N(CC)c7ccc(Cl)cc76)c5c4O)c(O)c23)c2cc(Cl)ccc21
**A:** 4.86

**Q:** Given the compound Cc1cc2c(C(C)C)c(O)c(O)c(/C=N/N=C3\C(=O)N(Cc4ccccc4)c4ccccc43)c2c(O)c1-c1c(C)cc2c(C(C)C)c(O)c(O)c(/C=N/N=C3/C(=O)N(Cc4ccccc4)c4ccccc43)c2c1O , what is its reported pIC50?
**A:** 4.05

###

I'd be grateful if you could share measured IC50 for these entries.
Tested on: human lung cancer cells (A-549)
Protocol details: tumor cell proliferation inhibition test, MTT method, A-549
Assay type: cell-based
Assay setup: A549 cells, 48 hours treatment, read-out: Half Inhibitory Concentration IC50 A549
Lab book: enter the figure in µM, no units written.

**Q:** Notebook: pull reported IC50 for human lung cancer cells (A-549), entry Cc1cc2c(C(C)C)c(O)c(O)c(/C=N/N=C3\C(=O)Nc4ccc(Cl)cc43)c2c(O)c1-c1c(C)cc2c(C(C)C)c(O)c(O)c(/C=N/N=C3/C(=O)Nc4ccc(Cl)cc43)c2c1O
**A:** 68.3

**Q:** Query the reported IC50 for human lung cancer cells (A-549); item: Cc1cc2c(C(C)C)c(O)c(O)c(/C=N/N=C3\C(=O)N(C(C)C)c4ccc(Cl)cc43)c2c(O)c1-c1c(C)cc2c(C(C)C)c(O)c(O)c(/C=N/N=C3/C(=O)N(C(C)C)c4ccc(Cl)cc43)c2c1O
**A:** 66.5

**Q:** I'm curious: which IC50 was measured for CCN1C(=O)/C(=N\N=C\c2c(O)c(O)c(C(C)C)c3cc(C)c(-c4c(C)cc5c(C(C)C)c(O)c(O)c(/C=N/N=C6/C(=O)N(CC)c7ccc(Cl)cc76)c5c4O)c(O)c23)c2cc(Cl)ccc21 tested on human lung cancer cells (A-549)?
**A:** 19.3

**Q:** Field: IC50 (human lung cancer cells (A-549)). Entry: Cc1cc2c(C(C)C)c(O)c(O)c(/C=N/N=C3\C(=O)N(Cc4ccccc4)c4ccc(Cl)cc43)c2c(O)c1-c1c(C)cc2c(C(C)C)c(O)c(O)c(/C=N/N=C3/C(=O)N(Cc4ccccc4)c4ccc(Cl)cc43)c2c1O
**A:** 16.3

**Q:** Write down the reported IC50 of Cc1cc2c(C(C)C)c(O)c(O)c(/C=N/N=C3\C(=O)N(C)c4ccccc43)c2c(O)c1-c1c(C)cc2c(C(C)C)c(O)c(O)c(/C=N/N=C3/C(=O)N(C)c4ccccc43)c2c1O , test system: human lung cancer cells (A-549).
**A:** 7.87

###

So I've got a bunch of molecules here, and I need their pIC50 values.
System: human gastric cancer cells (SGC-7901)
Protocol details: tumor cell proliferation inhibition test, MTT method, SGC-7901
Format: cell-based
Assay setup: SGC-7901 cells, 48 hours treatment, read-out: Half Inhibitory Concentration IC50 SGC-7901
pIC50: −log10 of the molar value.

**Q:** Sample Cc1cc2c(C(C)C)c(O)c(O)c(/C=N/N=C3\C(=O)N(C)c4ccccc43)c2c(O)c1-c1c(C)cc2c(C(C)C)c(O)c(O)c(/C=N/N=C3/C(=O)N(C)c4ccccc43)c2c1O — what was its pIC50?
**A:** 4.78

**Q:** Query: pIC50; subject: Cc1cc2c(C(C)C)c(O)c(O)c(/C=N/N=C3\C(=O)Nc4ccc(Cl)cc43)c2c(O)c1-c1c(C)cc2c(C(C)C)c(O)c(O)c(/C=N/N=C3/C(=O)Nc4ccc(Cl)cc43)c2c1O
**A:** < 4.00

**Q:** So what's the measured pIC50 for this one? Cc1cc2c(C(C)C)c(O)c(O)c(/C=N/N=C3\C(=O)N(C(C)C)c4ccc(Cl)cc43)c2c(O)c1-c1c(C)cc2c(C(C)C)c(O)c(O)c(/C=N/N=C3/C(=O)N(C(C)C)c4ccc(Cl)cc43)c2c1O
**A:** < 4.00

###

Tested on: human gastric cancer cells (SGC-7901)
Protocol details: tumor cell proliferation inhibition test, MTT method, SGC-7901
Type: cell-based
Assay setup: SGC-7901 cells, 48 hours treatment, read-out: Half Inhibitory Concentration IC50 SGC-7901
Parameter measured: IC50 (µM)
Lab book: enter the figure in µM, no units written.

**Q:** Find the measured IC50: item Cc1cc2c(C(C)C)c(O)c(O)c(/C=N/N=C3\C(=O)N(Cc4ccccc4)c4ccc(Cl)cc43)c2c(O)c1-c1c(C)cc2c(C(C)C)c(O)c(O)c(/C=N/N=C3/C(=O)N(Cc4ccccc4)c4ccc(Cl)cc43)c2c1O [Compound 7] , target or system human gastric cancer cells (SGC-7901).
**A:** 12.5

###

Give melting point for every item shown.
Answer format: value, then unit.

**Q:** Entry under review: Cc1cc2c(C(C)C)c(O)c(O)c(/C=N/N=C3\C(=O)Nc4ccc(Cl)cc43)c2c(O)c1-c1c(C)cc2c(C(C)C)c(O)c(O)c(/C=N/N=C3/C(=O)Nc4ccc(Cl)cc43)c2c1O . Reported melting point?
**A:** 190.7 °C

**Q:** State the recorded melting point for this entry: Cc1cc2c(C(C)C)c(O)c(O)c(/C=N/N=C3\C(=O)N(Cc4ccccc4)c4ccccc43)c2c(O)c1-c1c(C)cc2c(C(C)C)c(O)c(O)c(/C=N/N=C3/C(=O)N(Cc4ccccc4)c4ccccc43)c2c1O
**A:** 219.9 °C

**Q:** Fill in: melting point of Cc1ccc2c(c1)/C(=N/N=C/c1c(O)c(O)c(C(C)C)c3cc(C)c(-c4c(C)cc5c(C(C)C)c(O)c(O)c(/C=N/N=C6/C(=O)Nc7ccc(C)cc76)c5c4O)c(O)c13)C(=O)N2 is ___
**A:** 187.5 °C

**Q:** Any idea what melting point was measured for Cc1cc2c(C(C)C)c(O)c(O)c(/C=N/N=C3\C(=O)N(C(C)C)c4ccc(Cl)cc43)c2c(O)c1-c1c(C)cc2c(C(C)C)c(O)c(O)c(/C=N/N=C3/C(=O)N(C(C)C)c4ccc(Cl)cc43)c2c1O ?
**A:** 216.3 °C

**Q:** Field request: melting point | item: Cc1cc2c(C(C)C)c(O)c(O)c(/C=N/N=C3\C(=O)N(C)c4ccc(Cl)cc43)c2c(O)c1-c1c(C)cc2c(C(C)C)c(O)c(O)c(/C=N/N=C3/C(=O)N(C)c4ccc(Cl)cc43)c2c1O
**A:** 204.3 °C

###

For each entry below, report its IC50 value.
System: human lung cancer cells (A-549)
Protocol details: tumor cell proliferation inhibition test, MTT method, A-549
Type: cell-based
Assay setup: A549 cells, 48 hours treatment, read-out: Half Inhibitory Concentration IC50 A549

**Q:** May I ask what IC50 has been recorded for Cc1cc2c(C(C)C)c(O)c(O)c(/C=N/N=C3\C(=O)N(C)c4ccc(Cl)cc43)c2c(O)c1-c1c(C)cc2c(C(C)C)c(O)c(O)c(/C=N/N=C3/C(=O)N(C)c4ccc(Cl)cc43)c2c1O [Compound 4] ?
**A:** > 100 µM

**Q:** Query (molecule): Cc1cc2c(C(C)C)c(O)c(O)c(/C=N/N=C3\C(=O)N(Cc4ccccc4)c4ccccc43)c2c(O)c1-c1c(C)cc2c(C(C)C)c(O)c(O)c(/C=N/N=C3/C(=O)N(Cc4ccccc4)c4ccccc43)c2c1O [Compound 8] ; field requested: IC50
**A:** > 100 µM

**Q:** Consider the molecule shown here: Cc1ccc2c(c1)/C(=N/N=C/c1c(O)c(O)c(C(C)C)c3cc(C)c(-c4c(C)cc5c(C(C)C)c(O)c(O)c(/C=N/N=C6/C(=O)Nc7ccc(C)cc76)c5c4O)c(O)c13)C(=O)N2 [Compound 1] What is its recorded IC50?
**A:** > 100 µM
